# Tested on: CAOV3
# assay.notes: Primary qHTS to identify gynecologic anti-cancer compounds using libraries of approved drugs and bioactive compounds (AID 1345084); further: nearly all actives have a fitted effect of over 55% in size
# run.parameters: Gynecologic cancer cell panel viability, ATPlite luminescence, 48 h; series mostly up to 57.5 µM
Inconclusive results are not listed. Calls of active or inactive are those of the source. The call rests on the fitted dose curve; in most records, active means well fitted cell-killing curve with a large enough effect; inconclusive means small, poorly fitted or top-dose-only effect, or effect the other way; inactive means flat fitted curve, though single readings scatter.
value.type: outcome

Worked examples, 6 compounds total:
> print(dat)
                                   compound  value.type  recorded.value
1  [O-][n+]1cccc(/C(Cl)=N/OC[C@@H](O)CN2CCCCC2)c1     outcome        inactive
2                   Cc1ccc(-c2ccccc2C#N)cc1     outcome        inactive
3                CC1(C)OC(=O)Nc2ccc(Br)cc21     outcome        inactive
4  CN1CCCN(C(c2ccccc2)c2ccc(Cl)cc2)CC1 (configuration not stated)     outcome        inactive
5  NC(=O)NC1N=C([O][Al])NC1=O (configuration not stated)     outcome        inactive
6                   C#Cc1ccc(-c2ccccc2F)cc1     outcome        inactive

For every listed record, write down its outcome.
1. CCOC(=O)Cn1cccc1-c1nc(-c2ccc(OC)cc2)c(-c2ccc(OC)cc2)s1
2. CO[C@]1(NC(=O)CSC(F)F)C(=O)N2C(C(=O)O)=C(CSc3nnnn3CCO)CO[C@H]21

Result:
1: inactive; 2: inactive

====

# target.desc: Glutathione peroxidase 1 (Homo sapiens) (UniProt P07203)
# Sequence (P07203 whole entry, looked up): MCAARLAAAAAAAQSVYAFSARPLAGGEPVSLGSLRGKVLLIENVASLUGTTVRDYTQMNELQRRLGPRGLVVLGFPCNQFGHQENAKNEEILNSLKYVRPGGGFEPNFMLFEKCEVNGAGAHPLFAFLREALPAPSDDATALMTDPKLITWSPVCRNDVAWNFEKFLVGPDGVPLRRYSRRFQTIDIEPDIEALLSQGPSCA
# assay.notes: Primary qHTS Assay for Inhibitors of Recombinant Selenoprotein Glutathione Peroxidase 1 (GPX1) (AID 1845191); further: nearly all actives have a fitted effect of over 65% in size
# run.parameters: recombinant GPX1, GR-coupled NADPH fluorescence, 15 min; series mostly up to 48.8 µM
Inconclusive results are not listed. Calls of active or inactive are those of the source. Calls come from the whole dose curve; as a rule, active = well fitted inhibition curve with a large enough effect; inconclusive = small, poorly fitted or top-dose-only effect; inactive = flat fitted curve, though single readings scatter.
value.type: outcome

> print(dat)
                                   compound                               target.desc  recorded.value
1  CN1C(CSCC(F)(F)F)Nc2cc(Cl)c(S(N)(=O)=O)cc2S1(=O)=O (stereo not given)  Glutathione peroxidase 1 (Homo sapiens) (UniProt P07203)        inactive
2  COC(=O)CCCCC(CCSS/C(CCO)=C(\C)N(C=O)Cc1cnc(C)nc1N)SC(C)=O (stereo not given)  Glutathione peroxidase 1 (Homo sapiens) (UniProt P07203)        inactive
3  CC(C)(C)C(O)/C=C/c1ccc2c(c1)OCO2 (stereo not given)  Glutathione peroxidase 1 (Homo sapiens) (UniProt P07203)        inactive
4  O=C1NC2CCCCN2C12CCN(CCCN1c3ccccc3CCc3ccc(Cl)cc31)CC2 (stereo not given)  Glutathione peroxidase 1 (Homo sapiens) (UniProt P07203)        inactive

Ask: Please list outcome recorded for the compound `C/C(=C1\CCOC(=O)S1)N(C=O)Cc1cnc(C)nc1N`
Result: inactive

====

# assay.notes: Cell Viability - LYMP1-002 - Assay at 24 hr (AID 993)
# run.parameters: LYMP1-002 lymphoblastoid cells viability; series mostly up to 92.2 µM
Active and inactive are the calls of the source. Calls follow the shape of the dose curve; as a rule, active = well fitted cell-killing curve with a large enough effect; inconclusive = small, poorly fitted or top-dose-only effect; inactive = flat fitted curve, though single readings scatter.
// one of active, inactive, no free text

Previously resolved entries follow.
> print(dat)
                      compound  category.label
1           Nc1cccc2c(N)cccc12        inactive
2  CCCCCCCCCCCCCCCC[n+]1ccccc1          active
3        O=C(c1ccccc1)c1ccccc1        inactive

Now, please, on to the next compound.
Ask: // outcome(item) with item = CCCCC(CC)COC(=O)c1ccccc1C(=O)O (stereo not drawn)
Result: inactive

====

# assay.notes: qHTS assay for small molecule disruptors of the mitochondrial membrane potential - 5 hr assay (AID 651755); further: nearly all actives have a fitted effect of over 40% in size
# run.parameters: JC-1-type ratio dye; series mostly up to 92.2 µM
Results filed as inconclusive are left out. Activity calls are given as the source filed them. Calls come from the whole dose curve.
// one of label 1 (active), label 0 (inactive), no free text

> print(dat)
                                   compound  category.label
1                              Cc1ccc(O)cc1         label 0
2  CCCCC(CC)COC(=O)c1ccccc1C(=O)O (stereo unspecified)         label 0
3  CC(=O)OC/C=C(C)/C=C/C=C(C)/C=C/C1=C(C)CCCC1(C)C         label 0
4                     Nc1c2ccccc2nc2ccccc12         label 1

Ask: Dear colleague, could you share the recorded outcome for `O=C(c1ccccc1)c1ccccc1` when you have a moment?
Result: label 0

Ask: Assay outcome for `OCc1c[nH]c2ccccc12` : what was it?
Result: label 0

====

# target.desc: Thioredoxin reductase 1, cytoplasmic (Rattus norvegicus)
# assay.notes: qHTS Assay for Inhibitors of Mammalian Selenoprotein Thioredoxin Reductase 1 (TrxR1) (AID 488773); further: nearly all actives have a fitted effect of over 40% in size
# run.parameters: purified TrxR1 enzyme activity; inhibition; series mostly up to 57.1 µM
Results filed as inconclusive are left out. Activity calls are given as the source filed them. Calls come from the whole dose curve; as a rule, active = well fitted inhibition curve with a large enough effect; inconclusive = small, poorly fitted or top-dose-only effect; inactive = no such curve, though single readings can be large or run the other way.
Respond only with the outcome that fits, drawn from 1 (yes) for active, 0 (no) for inactive

> print(dat)
                                 mol.smiles  category.label
1  O=C1NC(=O)/C(=C/c2ccc3c(c2)OC(F)(F)O3)S1          0 (no)

Ask: Entry `CC(C)N(CCC(=O)c1ccc2ccccc2c1)Cc1ccccc1` : call = ?
Result: 1 (yes)

Ask: Kindly provide the recorded test outcome for the following molecule: `CCN(CC)CCNC(=O)c1ccc(NS(C)(=O)=O)cc1`
Result: 0 (no)

Ask: Assay result, entry `Nc1ncnc2n[nH]c(Nc3ccc(F)cc3)c12` — outcome?
Result: 0 (no)

====

# target.desc: Glucocorticoid receptor (Homo sapiens) (UniProt P04150)
# Sequence (P04150 whole entry, looked up): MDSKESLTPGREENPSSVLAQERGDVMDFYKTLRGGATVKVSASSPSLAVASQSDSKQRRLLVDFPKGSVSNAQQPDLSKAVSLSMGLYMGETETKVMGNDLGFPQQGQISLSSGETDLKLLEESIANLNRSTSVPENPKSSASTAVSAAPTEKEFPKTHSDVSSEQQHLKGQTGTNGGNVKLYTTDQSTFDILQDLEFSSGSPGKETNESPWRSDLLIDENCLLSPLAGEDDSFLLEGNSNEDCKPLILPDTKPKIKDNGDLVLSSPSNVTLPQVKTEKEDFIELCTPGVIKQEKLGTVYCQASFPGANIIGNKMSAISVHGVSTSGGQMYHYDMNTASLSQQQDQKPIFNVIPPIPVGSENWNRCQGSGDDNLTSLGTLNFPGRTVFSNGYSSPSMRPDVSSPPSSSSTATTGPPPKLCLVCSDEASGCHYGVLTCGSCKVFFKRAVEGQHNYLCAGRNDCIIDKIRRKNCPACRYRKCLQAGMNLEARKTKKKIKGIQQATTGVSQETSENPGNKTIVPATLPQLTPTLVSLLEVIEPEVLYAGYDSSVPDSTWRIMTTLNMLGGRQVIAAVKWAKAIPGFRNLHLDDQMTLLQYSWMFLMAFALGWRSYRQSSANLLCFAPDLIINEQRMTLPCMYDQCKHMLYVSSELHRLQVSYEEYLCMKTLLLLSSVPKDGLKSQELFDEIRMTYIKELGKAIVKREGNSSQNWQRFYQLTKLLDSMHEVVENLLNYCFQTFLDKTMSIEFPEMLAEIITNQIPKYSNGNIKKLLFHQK
# assay.notes: GR-EFC Redistribution (AID 451); further: potency means the concentration at half of the fitted maximal effect
# run.parameters: CHO-K1 GR-EFC translocation, beta-gal luminescence, 2 h
Active and inactive are the calls of the source. The call rests on the fitted dose curve.
value.type: Potency

Past entries and their recorded results:
> print(dat)
                                 mol.smiles        recorded.value
1                                  NCC(=O)O    > 46 µM (inactive)
2  O=C(CCCCC(=O)Nc1c(I)cc(I)c(C(=O)O)c1I)Nc1c(I)cc(I)c(C(=O)O)c1I  > 20.6 µM (inactive)
3                     Nc1c[n+](N2CCOCC2)no1    > 46 µM (inactive)

Provide each entry's Potency from the list below.
1. CC(C)N(CCC(=O)c1ccc2ccccc2c1)Cc1ccccc1
2. CN(C)c1cc2c(Nc3ccc4c(cnn4Cc4ccccc4)c3)ncnc2cn1

Result:
1: > 46 µM (inactive); 2: > 46 µM (inactive)

Ask: Hello, please tell me recorded Potency for this one: `O=C1NC(c2cccc([N+](=O)[O-])c2)=CCN1c1ccccc1O`
Result: > 46 µM (inactive)

====

# target.desc: Mitogen-activated protein kinase 10 (Mus musculus)
# assay.notes: JNK3 AlphaScreen Assay (AID 530);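 further: kinase came from lysate of stimulated human HepG2 cells; signal reports phosphorylation of biotinylated GST-cJun 1-79 at Ser73 with 10 µM ATP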
# run.parameters: JNK3 lysate, c-Jun phosphorylation; series mostly up to 57.1 µM
Records with an inconclusive call do not appear. Activity calls are given as the source filed them. The call rests on the fitted dose curve; in most records, active means well fitted curve in either direction with a large enough effect (not every such curve was filed as active); inconclusive means small, poorly fitted or top-dose-only effect, or another doubt; inactive means flat fitted curve, though single readings scatter.
value.type: activity change, negative = inhibition

> print(dat)
                                 mol.smiles  recorded.value
1  C[C@@H](C1=C(CCN(C)C)Cc2ccccc21)c1ccccn1        inactive
2                   O=C(Oc1ccccc1)c1ccccc1O        inactive
3               CCCCCCCCCCCCCCCC[n+]1ccccc1        inactive

====

# Tested on: Nanoluciferase (engineered Oplophorus gracilirostris luciferase)
# assay.notes: Primary Nanoluciferase (NLuc) qHTS assay for identification of artifact compounds. (AID 1845222)
# run.parameters: NLuc-conditioned medium, Nano-Glo luminescence, 5 min; series mostly up to 54.1 µM
Activity calls are given as the source filed them. The call rests on the fitted dose curve; in most records, active means well fitted inhibition curve with a large enough effect; inconclusive means small, poorly fitted or top-dose-only effect; inactive means flat fitted curve, though single readings scatter.
In this exercise, the only acceptable responses are T for active, F for inactive

Recorded results for 4 compounds are shown here.
> print(dat)
                                   compound  category.label
1  Cc1nn(-c2ccccc2)c(C)c1/C=N/N1CCN(Cc2ccccc2)CC1               F
2  CCCCCOc1ccc(C2SC(=O)NC2=O)cc1OCC (stereo not given)               F
3    CC(C)N(CCC(=O)c1ccc2ccccc2c1)Cc1ccccc1               T
4             Brc1ccc([C@H]2CN3CCSC3=N2)cc1               F

Please find the next compound below.
Ask: What call does the record list for `C=CC[N+]1([C@H]2C[C@H]3[C@@H]4CC[C@H]5C[C@H](OC(C)=O)[C@@H](N6CCCCC6)C[C@]5(C)[C@H]4CC[C@]3(C)[C@H]2OC(=O)CC)CCCCC1` ?
Result: F
